Recorded measurements of pKi, one per entry
- test.description: Inhibition of rat liver monoamine oxidase by Lineweaver-Burke plot
pKi is a log-scale quantity: -log10 of the concentration expressed in molar.

Oc1ccc(C2=NN(C(=S)Nc3ccccc3)C(c3ccc(O)cc3)C2)cc1 (stereo not given)
4.51
Oc1ccccc1C1=NN(C(=S)Nc2ccccc2)C(c2ccco2)C1 (stereo not given)
4.56
Oc1ccccc1C1=NN(C(=S)Nc2ccccc2)C(c2ccccc2O)C1 (stereo not given)
4.31
Oc1ccc(C2CC(c3ccccc3O)=NN2C(=S)Nc2ccccc2)cc1 (stereo not given)
4.30

For the compound COc1cc(C2CC(c3ccccc3O)=NN2C(=S)Nc2ccccc2)ccc1O (stereo not given) , what pKi is on record?
4.20

====

Item-by-item account of IC50
- test.target: Amine oxidase [flavin-containing] A (Rattus norvegicus, UniProt P21396)
- Sequence (P21396 whole entry): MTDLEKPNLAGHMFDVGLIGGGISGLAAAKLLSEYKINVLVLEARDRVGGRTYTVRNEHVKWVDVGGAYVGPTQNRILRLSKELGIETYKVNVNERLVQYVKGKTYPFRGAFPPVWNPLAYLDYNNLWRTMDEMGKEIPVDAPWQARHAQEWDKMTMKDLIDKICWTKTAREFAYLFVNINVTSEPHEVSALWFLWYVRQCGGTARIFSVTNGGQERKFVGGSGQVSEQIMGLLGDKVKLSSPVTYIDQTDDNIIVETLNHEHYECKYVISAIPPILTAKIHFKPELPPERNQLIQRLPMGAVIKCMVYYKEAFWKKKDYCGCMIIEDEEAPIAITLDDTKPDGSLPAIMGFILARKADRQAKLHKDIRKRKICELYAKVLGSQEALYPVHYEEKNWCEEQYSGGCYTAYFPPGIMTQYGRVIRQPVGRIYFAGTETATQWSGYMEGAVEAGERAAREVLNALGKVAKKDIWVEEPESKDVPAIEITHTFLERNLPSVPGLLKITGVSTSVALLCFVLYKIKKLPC

Oc1ccccc1C1=NN(C(=S)Nc2ccccc2)C(c2ccccc2Cl)C1 (centres undefined)
20 µM
COc1cc(C2CC(c3ccccc3O)=NN2C(=S)Nc2ccccc2OC)ccc1O (centres undefined)
170 µM
Oc1ccccc1C1CC(c2ccccc2)=NN1C(=S)Nc1ccccc1 (centres undefined)
451 µM

Query IC50 on Amine oxidase [flavin-containing] A (Rattus norvegicus, UniProt P21396) for Oc1ccccc1C1=NN(C(=S)Nc2ccccc2)C(c2ccc(Cl)cc2)C1 (centres undefined)
23.2 µM
